tested on: RXF 393 renal; assay: NCI-60 one-dose screen, 48 h (100 = growth as untreated, 0 = no growth, -100 = all killed); settings: 10 µM unless noted
This is part of a sample that, as a whole, favours compounds with a hit. Of some 83,000 tested, about 20% had one in any assay.
Recorded growth, one value per entry.
measured.metric: growth (%)

>>> meas_value("Cn1cc(-c2csc(-c3cn(C)c4ncccc34)n2)c2ccccc21")
19.9
>>> meas_value("COc1ccc(-c2csc(NC(=O)CN3CCN(c4cc5c(cc4F)c(=O)c(C(=O)O)cn5C4CC4)CC3)n2)cc1")
18.7
>>> meas_value("COc1c2ccccc2c(OC)c2[nH]c(=O)ccc12")
91.3
>>> meas_value("O=C(CN1CCN(c2cc3c(cc2F)c(=O)c(C(=O)O)cn3C2CC2)CC1)Nc1cc(=O)[nH]c(=O)[nH]1")
94.4
>>> meas_value("CC(C)CC(CC1=CCC2CC1C2(C)C)C1=C(O)C(C)(C)C(=O)C(C)(C)C1=O (stereo not given)")
7.5
